- Subject of test: Calcium and integrin-binding protein 1 (Homo sapiens) (UniProt Q99828)
- Sequence (Q99828 whole entry, looked up): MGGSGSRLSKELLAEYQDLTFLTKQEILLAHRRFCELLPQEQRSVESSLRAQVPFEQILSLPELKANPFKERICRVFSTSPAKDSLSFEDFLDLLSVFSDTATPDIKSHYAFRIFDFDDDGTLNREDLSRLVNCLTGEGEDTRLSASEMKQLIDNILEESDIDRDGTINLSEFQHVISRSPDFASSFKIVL
- Measurement notes: Primary qHTS for Identification of Calcium Integrin Binding Protein 1 (CIB1) Competitor (AID 1508620);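 note: GST tagged CIB1 binding a fluorescein labelled alphaIIb integrin peptide tracer; top concentration of the series differs between compounds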
- Measurement conditions: CIB1-GST / FITC-alphaIIb peptide fluorescence polarization; series mostly up to 114 µM
Records with an inconclusive call do not appear. Active and inactive are the calls of the source. Calls come from the whole dose curve; as a rule, active = well fitted inhibition curve with a large enough effect; inconclusive = small, poorly fitted or top-dose-only effect; inactive = flat fitted curve, though single readings scatter.
Experimental endpoint: outcome

For orientation, consider the following solved cases.
I am curious: what outcome value has been reported for CCOC(=O)/C=C(C)/C=C/C=C(C)/C=C/c1c(C)cc(OC)c(C)c1C ?
inactive

Item CC(=O)Nc1c(I)cc(I)c(C(=O)O)c1I has what recorded outcome?
inactive

Entry O=c1ccc2ccccc2o1 : reported outcome = ?
inactive

I am curious: what outcome value has been reported for CCCCN1CCCC1C(=O)Nc1c(C)cc(C)cc1C (stereo not given) ?
inactive

Look at this compound and give its reported outcome. CCCCCCCCCCCCCCNCCO
inactive

Entry C[C@@H]1C[C@H]2[C@@H]3C[C@H](F)C4=CC(=O)C(Cl)=C[C@]4(C)[C@@]3(F)[C@@H](O)C[C@]2(C)[C@@]1(O)C(=O)CO has what outcome?
inactive

Can you look up the measured outcome of Cc1onc(-c2c(Cl)cccc2Cl)c1C(=O)N[C@@H]1C(=O)N2[C@@H]1SC(C)(C)[C@@H]2C(=O)O for me?
inactive

Which outcome is reported for this compound? CC(C)N=C(N)/N=C(\N)Nc1ccc(Cl)cc1
inactive

Query: outcome; subject: Cc1c(N(C)CS(=O)(=O)O)c(=O)n(-c2ccccc2)n1C
inactive

What value of outcome has been recorded for this entry: COC(=O)[C@@H]1CC2=CC(=O)CC[C@]2(C)[C@@]23O[C@@H]2C[C@@]2(C)[C@@H](CC[C@@]24CCC(=O)O4)[C@H]13
inactive

With those in mind, consider the next compound.
What measured outcome goes with CCCCOc1cc(C(=O)NCCN(CC)CC)c2ccccc2n1 ?
inactive
